- Assay protocol: Novel Modifiers of Survival Motor Neuron (SMN) Protein: Gene Identification via Genome-wide siRNA Screen;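 also: luminescence tracks full-length SMN protein made from the SMN2 reporter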
- Assay conditions: HEK293T SMN2-luciferase reporter, siRNA knockdown, 72 h; actives lie on both sides
Out of some 31,000 sequences screened, about 1,400 (4.5%) were called active. Shown is part of a subset that was picked to be rich in actives.
Parameter measured: median seed-adjusted z-score

Consider the following illustrative entries.
[[record]]
sequence = "GAACAUAUGUGAUGACCGUTT against CDH2"
parameter_measured = "median seed-adjusted z-score"
recorded_result = "-0.235 (inactive)"

[[record]]
sequence = "GAAUGACCUUGAACAAUGATT against ABTB2"
parameter_measured = "median seed-adjusted z-score"
recorded_result = "0.432 (inactive)"

[[record]]
sequence = "UGCGCAACCUUAAGAACAATT against PRAF2"
parameter_measured = "median seed-adjusted z-score"
recorded_result = "-0.326 (inactive)"

[[record]]
sequence = "GGAAAUUACGGCUACAGAATT against AP1S3"
parameter_measured = "median seed-adjusted z-score"
recorded_result = "0.153 (inactive)"

[[record]]
sequence = "GGUGGAGGACCAAACAGAATT against MGAT4B"
parameter_measured = "median seed-adjusted z-score"
recorded_result = "0.0142 (inactive)"

[[record]]
sequence = "CAGUGUUCCUAUUAGAUGATT against LONP2"
parameter_measured = "median seed-adjusted z-score"
recorded_result = "1.52 (active)"

[[record]]
sequence = "CAUCAAUGGUCAUAAUGCATT against HNRNPA2B1"
parameter_measured = "median seed-adjusted z-score"
recorded_result = "1.33 (active)"

[[record]]
sequence = "GAAUGGUCCUAUAUCUCAATT against LARP5"
parameter_measured = "median seed-adjusted z-score"
recorded_result = "-0.144 (inactive)"

[[record]]
sequence = "GUAUCACUCUUAGAAUCCATT against GP1BA"
parameter_measured = "median seed-adjusted z-score"
recorded_result = "0.0803 (inactive)"

[[record]]
sequence = "GGCCGUGUACUGUAUCAUUTT against NUP93"
parameter_measured = "median seed-adjusted z-score"
recorded_result = "1.01 (active)"


Task item: Return reported median seed-adjusted z-score; argument: CAUUCAUCAUCCACCCAGATT against MUPCDH
Reply: -0.329 (inactive)

Task item: Return reported median seed-adjusted z-score; argument: GGGAAGCACUGGUCGAAGATT against DTD1
Reply: -1.58 (active)

* * *

- Assay protocol: Novel Modifiers of Survival Motor Neuron (SMN) Protein: Gene Identification via Genome-wide siRNA Screen;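 also: luminescence tracks full-length SMN protein made from the SMN2 reporter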
- Assay conditions: HEK293T SMN2-luciferase reporter, siRNA knockdown, 72 h; actives lie on both sides
Hit rate of the full screen: of about 31,000 sequences, about 1,400 (4.5%) were called active.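 The calls were made as follows: active = median seed-adjusted z-score above 1 or below -1; inactive = the rest.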 The sample as a whole holds a higher share of actives than the screen did.
The reply should be one of these categories: active, inactive

[[record]]
sequence = "GAUUUCUAAUUAACACAAUTT against POLR1D"
discrete_label = "inactive"


Task item: What did this assay record as the result for AGAGCACAUCAAAUCAGAATT against PAX2 ?
Reply: inactive

Task item: What did this assay record as the result for CAGUGACUAUGAGAGUGUATT against SCARB2 ?
Reply: inactive

Task item: What did this assay record as the result for GCAUCGCUGUUACCCAUCUTT against CCRN4L ?
Reply: inactive

Task item: What did this assay record as the result for GCAGGUUCCUUAUCUGUCATT against BIRC5 ?
Reply: inactive

Task item: What did this assay record as the result for GCAGAGUCAUGACCAGGGATT against CHST6 ?
Reply: inactive

* * *

- Assay protocol: Novel Modifiers of Survival Motor Neuron (SMN) Protein: Gene Identification via Genome-wide siRNA Screen;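 also: luminescence tracks full-length SMN protein made from the SMN2 reporter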
- Assay conditions: HEK293T SMN2-luciferase reporter, siRNA knockdown, 72 h; actives lie on both sides
Screen size: about 31,000 sequences; about 1,400 (4.5%) were called active.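 The calls were made as follows: active = median seed-adjusted z-score above 1 or below -1; inactive = the rest.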 The entries come from a sample that favours actives as a whole.
The reply should be one of these categories: active, inactive

Some entries whose results are on file:
[[record]]
sequence = "GCCUCGUUCUGAAGACGAUTT against LIPC"
discrete_label = "inactive"

[[record]]
sequence = "AACUUGUCGCUGCCCAAUATT against ABCA2"
discrete_label = "active"

[[record]]
sequence = "AGAACUCACCUCCUGAUUATT against YY1"
discrete_label = "active"

[[record]]
sequence = "CCUAUGAUAUGGUUCCAGATT against COX5A"
discrete_label = "inactive"

[[record]]
sequence = "GCUCGGUCUGGUGAACUAATT against KLF3"
discrete_label = "inactive"

[[record]]
sequence = "GAGUCACAAUUGAUCCGGATT against TOP2A"
discrete_label = "inactive"

[[record]]
sequence = "GGUAAAGUUUUACAGCAUUTT against MTCH2"
discrete_label = "inactive"

[[record]]
sequence = "CAGUGCAACCUGGAGAGAATT against NRBP2"
discrete_label = "inactive"


Task item: What did this assay record as the result for CAUCAACGAAGGAAAUAUATT against CD27 ?
Reply: inactive

Task item: What did this assay record as the result for CAAGAAUGUUACUAACAAUTT against TPM4 ?
Reply: inactive

Task item: What did this assay record as the result for UCCCGUUCCGUACGACUUATT against DHRS7C ?
Reply: inactive

Task item: What did this assay record as the result for CGAGACUACUAAAGAAACATT against DDX18 ?
Reply: inactive

* * *

- Assay protocol: Novel Modifiers of Survival Motor Neuron (SMN) Protein: Gene Identification via Genome-wide siRNA Screen;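 also: luminescence tracks full-length SMN protein made from the SMN2 reporter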
- Assay conditions: HEK293T SMN2-luciferase reporter, siRNA knockdown, 72 h; actives lie on both sides
Out of some 31,000 sequences screened, about 1,400 (4.5%) were called active.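 The calls were made as follows: active = median seed-adjusted z-score above 1 or below -1; inactive = the rest.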 Many of the other results were omitted from the sample, so actives are more common in it than they were.
The reply should be one of these categories: active, inactive

Some entries whose results are on file:
[[record]]
sequence = "GCAAGACAAGUGUCGGGAATT against HSPA6"
discrete_label = "inactive"

[[record]]
sequence = "ACAUUGUGGUAGCCUUGUATT against LYN"
discrete_label = "inactive"


Task item: What did this assay record as the result for CUACCAGGCUUAAUAGGAATT against GFM2 ?
Reply: inactive

Task item: What did this assay record as the result for GCAGAAUACCUGUUUCAAATT against TERF1 ?
Reply: inactive

Task item: What did this assay record as the result for UGAAUUACCUGGACCGUUUTT against CCND2 ?
Reply: inactive

Task item: What did this assay record as the result for GCAUAUGAUUUUAUGGUAATT against FBXW7 ?
Reply: inactive

Task item: What did this assay record as the result for GCAUGGUCAUAGGCCUGAUTT against CYB561 ?
Reply: inactive

Task item: What did this assay record as the result for GAUACAUGAAGGUAUACAATT against POLR3G ?
Reply: inactive

Task item: What did this assay record as the result for GCCUACUGGUCAUUGAUCATT against GNMT ?
Reply: inactive

Task item: What did this assay record as the result for GAUCUGGUCGAGUUUAAAATT against NAT2 ?
Reply: inactive

* * *

- Assay protocol: Novel Modifiers of Survival Motor Neuron (SMN) Protein: Gene Identification via Genome-wide siRNA Screen;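 also: luminescence tracks full-length SMN protein made from the SMN2 reporter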
- Assay conditions: HEK293T SMN2-luciferase reporter, siRNA knockdown, 72 h; actives lie on both sides
About 1,400 (4.5%) of roughly 31,000 sequences were called active. Only a selection was taken, and actives are over-represented in it overall.
Parameter measured: median seed-adjusted z-score
The answer should be written as a number, with no unit following it.

[[record]]
sequence = "GGACAUGACAGCAACCUUUTT against EGR1"
recorded_result = 0.0836

[[record]]
sequence = "GCAUCACGCUCUCGAAGCATT against PTBP1"
recorded_result = 0.578

[[record]]
sequence = "GGAUGAUCGUGACAAGUUUTT against ATP1B3"
recorded_result = -0.225

[[record]]
sequence = "GGAAAUUAGCUGCAGCUGATT against PPP1R2"
recorded_result = 0.208

[[record]]
sequence = "GGAGUUUGAGGUAUACCUATT against IL6"
recorded_result = -0.436


Task item: Return reported median seed-adjusted z-score; argument: CUACAUCAAGAAGACAUAUTT against ABHD2
Reply: -1.21

* * *

- Assay protocol: Novel Modifiers of Survival Motor Neuron (SMN) Protein: Gene Identification via Genome-wide siRNA Screen;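 also: luminescence tracks full-length SMN protein made from the SMN2 reporter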
- Assay conditions: HEK293T SMN2-luciferase reporter, siRNA knockdown, 72 h; actives lie on both sides
The campaign covered roughly 31,000 sequences. About 1,400 (4.5%) were called active. This is one part of a sample in which actives are shown more often than they occur.
Here, each record is paired with measured median seed-adjusted z-score data.
The answer should be written as a number, with no unit following it.

Consider the following illustrative entries.
[[record]]
sequence = "GCUAAUCCAUUUGAUGACATT against PYGO1"
parameter_measured = "median seed-adjusted z-score"
recorded_result = -1.23

[[record]]
sequence = "GGCACUUAAGGUUCGCUAUTT against PPP4C"
parameter_measured = "median seed-adjusted z-score"
recorded_result = 1.15

[[record]]
sequence = "CCAGGUCACGAGUCAAGUATT against KTI12"
parameter_measured = "median seed-adjusted z-score"
recorded_result = 0.0814


Task item: Return reported median seed-adjusted z-score; argument: ACCCAGAUAUGGAUCUGCATT against TTLL10
Reply: 0.211

Task item: Return reported median seed-adjusted z-score; argument: CAGGCUACAGUGAACAGAATT against GNL1
Reply: 0.154

Task item: Return reported median seed-adjusted z-score; argument: GGUCUGCACUCAUCACUAUTT against MGAT4A
Reply: 0.134

Task item: Return reported median seed-adjusted z-score; argument: GAGAGAUAUUGAUCGACUUTT against ARG2
Reply: -0.796

Task item: Return reported median seed-adjusted z-score; argument: GUGAUACUGUCAAAGGUCATT against ATF2
Reply: 0.424

Task item: Return reported median seed-adjusted z-score; argument: CAUCCAACGACAAUCUAUATT against ATP1A2
Reply: 0.248

Task item: Return reported median seed-adjusted z-score; argument: GAAAGCAACUGACACUCUUTT against ATP2C2
Reply: -0.302

Task item: Return reported median seed-adjusted z-score; argument: AGCCGACAGUGGUGCACUATT against PLA2G15
Reply: 0

Task item: Return reported median seed-adjusted z-score; argument: AGCUUAUGCAUUUGGCAAATT against APBA3
Reply: -0.119

Source: PubChem BioAssay AID1347426
